- ASSAY_REMARKS: soluble on expression in E. coli; label from the status in PepcDB or PDB records

{"SEQUENCE_CODE": "MANAIRLPPEAYPMSIAAQKNDDDRQARALAALAEKPDGIVEAIAAKAEVAPAEILAILPQGAAVSAPADRFDAIWNEMRGWGEILMIVQTGDIVLEVPGHLPEGTESHGWFNIHGDSPIGGHIKKDNCAAITFVDRGFHGRRSCSVWFMNAAGGAMFKIFVRRDENKELLAGQLAKFEELRDGFRGLEHHHHHH", "soluble on expression in E. coli": "soluble"}
{"SEQUENCE_CODE": "MECRLGCGACCIAPSITSFIPGMPNGKPAGVRCVQLNEENLCKLFGKAERPKVCHQFSACPDVCGSTSEQAIQTITELESMTLLEHHHHHH", "soluble on expression in E. coli": "not soluble"}
{"SEQUENCE_CODE": "MFNGDDDFPMGAMHSFGQMHQQMMSDMNMMTGGMLRNMGMGGPMFGGLMVPSPFGAITDGSGQQPSRRRQELEMNPFAPFGGLLGGLGGMGMMMPPPGQGANMYMSSSVMTIGPDGKPRVEQQTVRRHGDVTETKRRVDKNGESSMSIGHSIGDRSHFIDKKRDREGNVRKQQRFQNLDEASAEAFDREFSSRVRQGYGSGSRSSNLREIDNGLSSSRRSPFGGAGASSSSRRMESRGASRGAPIVTLPEEEETAHSRSSTSHRVGGPLIREISEEEAEQAASSIPKRRRGQQ", "soluble on expression in E. coli": "not soluble"}
{"SEQUENCE_CODE": "ELVMTQTPSSVSEPVGGTVTIKCQASQSISSWLSWYQQKPGQPPKLLIYDASNLASGVPSRFMGSGSGTEYTLTISGVQREDAATYYCLGGYPAASYRTAFGGGTELEIIRTVAAPSVFIFPPSDEQLKSGTASVVCLLNNFYPREAKVQWKVDNALQSGNSQESVTEQDSKDSTYSLSSTLTLSKADYEKHKVYACEVTHQGLSSPVTKSFNRGEC", "soluble on expression in E. coli": "soluble"}
{"SEQUENCE_CODE": "SRPVFAAKPDNEAIIDAQMKKPKVPVHAIATASHPMIRFIGHPEEQKNYDFFVPWLSKLPQWIAEGKQPYVMIHTADNIIAPELAANIYKNLQNHVALPDLAPFPANDGNSQLQMF", "soluble on expression in E. coli": "not soluble"}
{"SEQUENCE_CODE": "MMGSAYWEKLVPQINPPKVPSAVEGLGIPASVVENLVLKHLAAYPKCDLVELTQRLCVVSNIVELALAQLRKRSWVEVYQPASDKLSHSYSNVRYSLTEFGLAEADIAYRKDPYIGPVPVSLEDYWTVVEGQDLRKNPIMRADVERALSDVFGSEHLIPVLGPAINSGRAMLLYGHAGTGKSYVAAR", "soluble on expression in E. coli": "not soluble"}
{"SEQUENCE_CODE": "GMTLAALCQGVLERLDPRQPGRQLVALSGAPGSGKSTLSNPLAAALSAQGLPAEVVPMDGFHLDNRLLEPRGLLPRKGAPETFDFEGFQRLCHALKHQERVIYPLFDRARDIAIAGAAEVGPECRVAIIEGNYLLFDAPGWRDLTAIWDVSIRLEVPMADLEARLVQRWLDHGLNHDAAVARAQGNDLANARAIEAARLPADLTWPQA", "soluble on expression in E. coli": "soluble"}
{"SEQUENCE_CODE": "MGSDKIHHHHHHMNRAATLAAYLTEKNWMSQPVSAGQVSFLAAGEYNENWLVQCGGRAAVLRINHGSQLGLRNQSEYEFSVLRHVASSGLTPQPYALDPLPWKHGPGKGAMLMEYIPGTPPDYRLHAADAARLFARVHGCPLPPRGDMIVQPDPVRDIARESTGLLHRQPDHPRSDIRTRLLNYRDTVLRLADDTAQLFAGEPQVITNTEVNSGNFIVLPPQHPRRGNEQAGVALCLVDWEKAVISCCHQDLGHFLVPTTTRWKTDFTFDAQSRTDFLRAYLQARHGSVDADALEALHLRTRVLERTILLRALSWCFMAWYEYSRGDRTLRNEFTYGRITSYLENIECILKYGE", "soluble on expression in E. coli": "not soluble"}
{"SEQUENCE_CODE": "MSRKIPKEPTTRPAFNAYEKHVRDINNFVIPYQRENKYKKVVGETDLDVLKREYRFIRESEEEDAKSWETRLARRHYERLYKDYAIAELSQWREGSVGFRWLNQTEVLQGKGYSCCAATDCDSASELNTFEVPFTYEEDGETKATLVKVRLCRSCQVKMRESYRIAREKLK", "soluble on expression in E. coli": "soluble"}
{"SEQUENCE_CODE": "MEGFGMPKLIISGRGGSGKSTLVTLIAHTLKEQKKRVLVVDSDESNIGLSGILGIEPAEKTLMDYLGGKPRVMKKLRSMIRDGETEPELFREKFDLESLSQEFVCWVGSLGLMQIGKIDHAMEGCACPMGAVTRDFLNHVRLEEDQWVLVDTEAGVEHFGRGIVEGADAVVMVVDPSSDAVLLAEKAAKLTHEADKRFGVILNKIDEETEPILTELLTSEGNEIKGVLPYSPAITKMNLKGESLGAYAVKNEVDEIIRELMKCLEHHHHHH", "soluble on expression in E. coli": "not soluble"}
{"SEQUENCE_CODE": "MSLSDPIKIGFLAPLTGPVSSWGLPGLHGCRLWEDWLNRAGGILVGGRRYPVSIVPFDCGYDPERAMEGARHLVHTEQVKLLMMLGGDTFTPLRGFLTANKVLTSTLLPSDLSPDTRYLIAPSEVHPIYNVTGVDWLARNRPELRRVAMCSQKDALGLPSIATYRAAFEAAGVPVVKEVEYDPEMTDVATIVQPMLDAQPDVLCWCTSYTPMVHAMTEYAHAKGFSGQILSCTLDNYQRLVARTSAEFMEGALFQFPDFDDPKLARKAFFFNRPSTFFKEYNARYPGNWSAVSWEYVAILDIWHAAVEKVASVHPVSVLATMKQMDPVTHAFGPARWWGEGHHHHHH", "soluble on expression in E. coli": "not soluble"}
{"SEQUENCE_CODE": "MAHHHHHHMSSCQNTHAARLHSATSAYAGEPESWMWTPARENGDGWRSPGTGTATSATAEAALHFVWGRVLSVYAVMPLNQTWNVQGVVDAVLPPLPANGGTTAAPSPPAAPAMAPGFQLLVMAAALLSPPATATTAVAAAPSMASLHKLSLMSPADAEPVDVGELSGAFWLAALRRAWPLFQACGVSHEPMTQGSNTNITEEAASSLGGVAVGMAGSGVNLEDLRTIVLSLFLRFADDSAVASAMAAADGDGAKLCGSAIRWAEAMCSDAPATYAQ", "soluble on expression in E. coli": "not soluble"}
